Sourced from patent US20180237497A1

biological target: T1, human IGF2^1-67 (mature insulin-like growth factor 2) (human, UniProt P01344 25-91, biotinylated (site not stated) where immobilised on the chip (Tables 1-4)); assay: SPR steady state, biotin-IGF2 on chip, pH 7.4
T1 construct: mature; also called mature IGF2; biotinylated IGF2
T1 sequence (P01344 25-91): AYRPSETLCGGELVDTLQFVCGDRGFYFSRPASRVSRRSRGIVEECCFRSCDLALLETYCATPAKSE
parameter: pKd
Give bare numbers, as −log10 of the molar value.

Return the recorded pKd value; entry: domain 11^AB5 S1602H (receptor, See m5) MKSNEHDDCQVTNPSTGHLFDLSSLSGRAGFTAAYAKGWGVYMSICGENENCPPGVGACFGQTRISVGKANKRLRYVDQVLQLVYKDGSPCPSKHGLSYKSVISFVCRPEAGPTNRPMLISLDKQTCTLFFSWHTPLACEQATECSV 8.26
